Molecular target: PDGF-BB (platelet-derived growth factor BB) (Homo sapiens) (UniProt P01127)
Sequence (P01127 82-190): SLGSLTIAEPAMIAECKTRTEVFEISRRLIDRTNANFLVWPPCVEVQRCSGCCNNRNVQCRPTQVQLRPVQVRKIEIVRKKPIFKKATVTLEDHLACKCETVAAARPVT
Experiment: filter
Conditions: Nap-dU, Bn-dU, MBn-dU, 2'-OMe, C3; 1 Heg between parts

seqString: CCGTTCAAGTGCTTGTAGGATTTAAATGGTTACGTTACCGCGTTTATAGCG [4149-8_408]
valueUnits: nM
Kd: 0.043

----------
Biological target: PDGF-AB (UniProt P04085+P01127)
Sequence (P01127 82-190, chain 2 of 2, other chains not shown): as the sequence (P01127 82-190) above
Assay: filter
Conditions: Bn-dU; Heg linker; 2'-OMe A3, A11, A19, A21, G24
pKd: −log10 of the molar value.

seqString: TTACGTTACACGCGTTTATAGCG [4149-8_273]
studyTarget: PDGF-AB (UniProt P04085+P01127)
pKd: 9.72

----------
Biological target: PDGF-BB (platelet-derived growth factor BB) (Homo sapiens) (UniProt P01127)
Assay: filter
Details: Bn-dU; Nap-dU1; 2'-OMe U25
pKd: −log10 of the molar value.

seqString: TTACGACTACGTTACACGCGTTTATAGCG [4149-8_111]
pKd: < 8.00

----------
Molecular target: PDGF-BB (platelet-derived growth factor BB) (Homo sapiens) (UniProt P01127)
Test: filter
Settings: NapdU at P; 2'-OMe 4
pKd: −log10 of the molar value.
propertyName: pKd

seqString: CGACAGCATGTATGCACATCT [5169-4_34]
val: 10.48

----------
Molecular target: PDGF-BB (platelet-derived growth factor BB) (Homo sapiens) (UniProt P01127)
Assay: filter
Conditions: Bn-dU; C3 at 25

seqString: TTACGACTACGTTACACGCGTTTAAGCG [4149-8_88]
Kd: > 10 nM

----------
Tested on: VEGF-121 (Homo sapiens), P15692-9
Sequence: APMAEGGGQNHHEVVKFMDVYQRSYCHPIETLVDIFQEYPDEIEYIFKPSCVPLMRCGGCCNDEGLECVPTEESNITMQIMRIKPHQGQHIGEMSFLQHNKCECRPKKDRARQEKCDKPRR
Experiment: filter
Settings: P=Nap-dU; 2'-OMe C14
pKd: −log10 of the molar value.

seqString: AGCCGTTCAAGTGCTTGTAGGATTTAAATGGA [4867-31_78]
studyTarget: VEGF-121 (Homo sapiens), P15692-9
pKd: 9.62

----------
Biological target: PDGF-BB (platelet-derived growth factor BB) (Homo sapiens) (UniProt P01127)
Assay: filter
Settings: NapdU at P; 2'-OMe 7,14,16,18
pKd: −log10 of the molar value.

seqString: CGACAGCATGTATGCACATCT [5169-4_81]
pKd: 11.31

----------
System: VEGF-121 (Homo sapiens), P15692-9
Sequence: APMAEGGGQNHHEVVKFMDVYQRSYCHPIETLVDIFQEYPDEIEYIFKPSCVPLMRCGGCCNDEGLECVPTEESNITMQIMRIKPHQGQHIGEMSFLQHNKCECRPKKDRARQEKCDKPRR
Assay: filter
Conditions: as 4867-31_192 plus PS 3' of G3; 3'-idT; 29259-fold loss from PS at G3
propertyName: Kd (nM)

seqString: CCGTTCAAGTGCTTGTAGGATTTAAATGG [4867-31_411]
studyTarget: VEGF-121 (Homo sapiens), P15692-9
val: 320

----------
Target: PDGF-AB (UniProt P04085+P01127)
Test: filter
Conditions: Z BndU, P NapdU, M MBndU, superscript 1 2'-OMe, C3 spacer, Heg linkers; 5'-amine

seqString: TTACGTTACCGCGTTTATAGCGCCGTTCAAGTGCTTGTAGGATTTAAATGG [4149-8_401 (PDGF_379-HHH-VEGF_192)]
studyTarget: PDGF-AB (UniProt P04085+P01127)
Kd, nM: 0.193

----------
Target: PDGF-BB (platelet-derived growth factor BB) (Homo sapiens)
Experiment: filter
Conditions: all P are NapdU, rest DNA; SB18T, 37 C
Catalogue of Kd readings, one per entry.

seqString: CAGCATGTATGCACATCTAGAGGCTACCCAGTGAATGAGGA [5169-4_6]
Kd / nM: 67
//
seqString: GACAGCATGTATGCACATCT [5169-4_30]
Kd / nM: 0.062
//
seqString: CTGCCTCGACAGCATGTATGCACATCTAGAGGCTACCCAGTGAATGAGGA [5169-4_3]
Kd / nM: 0.029
//
seqString: CTGCCTCGACAGCATGTATGCACATCTAGAGGCTACCCAGT [5169-4_9]
Kd / nM: 0.72
//
seqString: CGACAGCATGTATGCACATCTAGAGGCT [5169-4_19]
Kd / nM: 0.012
//
seqString: ACAGCATGTATGCACATCTAGAGGCTACCCAGTGAA [5169-4_14]
Kd / nM: 0.17

----------
Tested on: VEGF-121 (Homo sapiens), P15692-9
Sequence: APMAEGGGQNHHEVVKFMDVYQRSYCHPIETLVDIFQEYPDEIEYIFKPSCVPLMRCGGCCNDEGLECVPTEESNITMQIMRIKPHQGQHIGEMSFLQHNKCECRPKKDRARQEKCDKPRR
Experiment: filter
Conditions: as 4867-31_192 plus PS 3' of G28; 3'-idT; PS walk
pKd: −log10 of the molar value.

seqString: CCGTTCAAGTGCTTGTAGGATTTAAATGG [4867-31_444]
pKd: 11.12

----------
Molecular target: PDGF-BB (platelet-derived growth factor BB) (Homo sapiens)
Assay: filter
Conditions: NapdU at P; 2'-OMe 13,14,15

seqString: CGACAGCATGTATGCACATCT [5169-4_128]
studyTarget: PDGF-BB (platelet-derived growth factor BB) (Homo sapiens)
Kd / nM: 0.099

----------
Target: PDGF-BB (platelet-derived growth factor BB) (Homo sapiens) (UniProt P01127)
Assay: filter
Details: as 5169-4_146 plus PS 3' of 9,10,11,12; 3'-idT

seqString: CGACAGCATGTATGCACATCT [5169-4_182]
Kd (nM): 0.039

----------
Test system: VEGF-121 (Homo sapiens), P15692-9
Sequence: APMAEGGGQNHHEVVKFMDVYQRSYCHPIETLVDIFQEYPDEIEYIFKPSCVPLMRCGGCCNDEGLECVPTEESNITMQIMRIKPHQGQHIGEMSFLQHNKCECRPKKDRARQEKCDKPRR
Assay: filter
Conditions: P=Nap-dU; 2'-OMe G31
pKd: −log10 of the molar value.

seqString: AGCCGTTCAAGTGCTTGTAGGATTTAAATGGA [4867-31_95]
pKd: 9.72

----------
System: VEGF-121 (Homo sapiens), P15692-9
Sequence: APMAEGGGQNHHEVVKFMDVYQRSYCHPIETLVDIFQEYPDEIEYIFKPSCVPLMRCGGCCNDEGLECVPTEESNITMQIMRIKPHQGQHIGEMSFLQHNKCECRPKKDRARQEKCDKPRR
Assay: filter
Settings: Nap-dU, Bn-dU, MBn-dU, 2'-OMe, C3; 3 Heg between parts

seqString: CCGTTCAAGTGCTTGTAGGATTTAAATGGTTACGTTACCGCGTTTATAGCG [4149-8_410]
valueUnits: nM
Kd: 0.026

----------
Tested on: VEGF-121 (Homo sapiens), P15692-9
Sequence: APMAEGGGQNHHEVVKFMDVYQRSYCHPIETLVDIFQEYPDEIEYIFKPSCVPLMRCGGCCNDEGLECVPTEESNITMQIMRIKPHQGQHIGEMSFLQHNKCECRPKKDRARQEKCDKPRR
Experiment: filter
Settings: P=Nap-dU; C3 spacer at 22
pKd: −log10 of the molar value.
propertyName: pKd

seqString: CCCTCCATCAGCCGTTCAAGTCTTGTAGGATTTAAATGGAATTGGAGGA [4867-15_45]
val: 8.46

----------
Molecular target: PDGF-BB (platelet-derived growth factor BB) (Homo sapiens) (UniProt P01127)
Assay: filter
Conditions: Bn-dU; C3 at 26
propertyName: Kd

seqString: TTACGACTACGTTACACGCGTTTATGCG [4149-8_89]
val: > 10 nM

----------
System: VEGF-121 (Homo sapiens), P15692-9
Sequence: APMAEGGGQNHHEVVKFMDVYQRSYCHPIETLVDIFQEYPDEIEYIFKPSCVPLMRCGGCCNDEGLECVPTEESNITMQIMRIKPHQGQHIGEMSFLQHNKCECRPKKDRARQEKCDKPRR
Assay: filter
Conditions: P=Nap-dU; 2'-OMe A10
pKd: −log10 of the molar value.

seqString: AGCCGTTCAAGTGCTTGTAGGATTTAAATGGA [4867-31_74]
studyTarget: VEGF-121 (Homo sapiens), P15692-9
pKd: 8.50

----------
Tested on: VEGF-121 (Homo sapiens), P15692-9
Sequence: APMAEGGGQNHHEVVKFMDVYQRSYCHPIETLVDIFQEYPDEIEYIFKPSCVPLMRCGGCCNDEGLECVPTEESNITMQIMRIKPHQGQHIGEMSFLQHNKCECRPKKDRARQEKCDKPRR
Assay: filter
Settings: VEGF-1Heg-PDGF; NapdU, BndU
pKd: −log10 of the molar value.

seqString: CCGTTCAAGTGCTTTAGATTTAAATGGTTACGTTACACGCGTTTATAGC [4149-8_314]
studyTarget: VEGF-121 (Homo sapiens), P15692-9
pKd: 8.81
